Test system: HCT-15 colon
Experiment: NCI tumour cell line growth inhibition, 48 h; in the data active = GI50 below about 0.43 µM; inactive = the rest
Result category, one only: label 1 for active, label 0 for inactive

Would you please look over these solved cases?
INSERT INTO results (smiles_str, category) VALUES
  ('COc1ccc(Nc2nc(NCCNc3ccnc4cc(Cl)ccc34)nc(N3CCOCC3)n2)cc1', 'label 0'),
  ('COc1ccc2cc(-c3cnc4nonc4n3)ccc2c1', 'label 0'),
  ('COC(=O)/C=C1/SC(=Nc2cccc(Cl)c2)N(CCc2c[nH]c3ccc(O)cc23)C1=O', 'label 0'),
  ('COC[C@H](NC(=O)c1cnc(C)s1)C(=O)N[C@@H](COC)C(=O)N[C@@H](Cc1ccccc1)C(=O)[C@@]1(C)CO1', 'label 0'),
  ('COc1cc(-c2nn(-c3cccc(NC(=O)Nc4ccc(Cl)c(C(F)(F)F)c4)c3)cc2-c2ccncc2)ccc1Cl', 'label 0');

Inquiry: Just curious, what result did CCN1CCN(CCNc2nccc(-c3c(-c4ccc(F)c(O)c4)nc4occn34)n2)S1(=O)=O get here?
Reply text: label 0

Inquiry: Just curious, what result did CCC[CH2][Sn](=[O])[CH2]CCC get here?
Reply text: label 0

Inquiry: Just curious, what result did COc1cc2nc(N3CCCN(C)CC3)nc(NC3CCN(Cc4ccccc4)CC3)c2cc1OC get here?
Reply text: label 0

Inquiry: Just curious, what result did COc1cc(-n2ccnc2-c2ccc3ccccc3c2)cc(OC)c1OC get here?
Reply text: label 1
